- measurement_target: ERα protein (HiBiT-tagged) in ESR1_HiBiT KI MCF7 cells (Homo sapiens)
- Sequence (P03372 whole entry): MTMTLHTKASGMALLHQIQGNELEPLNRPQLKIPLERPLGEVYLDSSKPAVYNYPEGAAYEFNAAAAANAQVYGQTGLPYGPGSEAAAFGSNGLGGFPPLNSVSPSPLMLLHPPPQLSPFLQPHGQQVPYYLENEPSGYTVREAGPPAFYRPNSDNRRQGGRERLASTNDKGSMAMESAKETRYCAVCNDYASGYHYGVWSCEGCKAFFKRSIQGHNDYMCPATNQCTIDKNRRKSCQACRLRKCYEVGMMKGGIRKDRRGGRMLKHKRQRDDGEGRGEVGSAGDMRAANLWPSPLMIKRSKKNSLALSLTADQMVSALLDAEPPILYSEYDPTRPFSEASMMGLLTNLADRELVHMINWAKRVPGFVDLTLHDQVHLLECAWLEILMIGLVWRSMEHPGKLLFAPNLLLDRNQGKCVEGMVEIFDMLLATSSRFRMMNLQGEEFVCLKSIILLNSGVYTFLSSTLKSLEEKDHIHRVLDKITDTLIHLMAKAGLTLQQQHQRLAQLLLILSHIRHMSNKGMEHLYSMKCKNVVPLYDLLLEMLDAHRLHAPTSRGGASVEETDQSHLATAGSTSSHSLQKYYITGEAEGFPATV
- assay_details: Nano Glo HiBiT Lytic Degradation Assay
- Assay type: cell-based
- study_conditions: 6 hours with compound, 14-point dose response 1:3, bell-shape curve fit, half-maximal effect of first Hill model, read-out: MCF7 ESR1 HiBiT - (DC50)
quantity: DC50

Worked examples follow.
[[record]]
compound = "O=C1CC[C@H](N2Cc3cc(N4CCN(CC5CCN(c6ccc([C@H]7c8ccc(O)cc8C(F)(F)C[C@H]7c7ccc(F)c(F)c7)cc6)CC5)CC4)ccc3C2=O)C(=O)N1"
recorded_measurement = "≥ 10 µM"

[[record]]
compound = "O=C1CC[C@H](N2Cc3cc(N4CCN(CC5CCN(c6ccc([C@@H]7c8ccc(Br)cc8CC[C@@H]7c7ccccc7)cc6)CC5)CC4)ccc3C2=O)C(=O)N1"
recorded_measurement = "≥ 10 µM"


Let us move to another entry and its DC50.
*Q* Lab note: need DC50 for O=C1CCC(c2ccc3c(c2)C[C@H](N2CCN(CC4CCN(c5ccc([C@@H]6c7ccc(O)cc7CC[C@@H]6c6ccccc6)cc5)CC4)CC2)CC3)C(=O)N1 (single isomer, unassigned) on ERα protein (HiBiT-tagged) in ESR1_HiBiT KI MCF7 cells (Homo sapiens), anyone have it?
*A* ≥ 10 µM
